- experimentSummary: Preliminary pharmacokinetic study, plasma concentration by RP-HPLC-fluorescence
- Type: in vivo, C57BL/6 mice
- conditionLabel: Table S2, Study 1 mouse 3, dose given 0.36 mg i.p., 110 min
- Description: S23 Preliminary pharmacokinetic studies of scoparone and 6,7-diprenoxycoumarin Table S1 Blood concentration of scoparone. mouse Dose given (mg) Body weight (g) Time (min) Cal. Conc. (µg/ml) […] Table S2 Blood concentration of 6,7-diprenoxycoumarin. Adopt previous study on fraxetin (unpublished result) , a coumarin compound, RP -HPLC -fluorescence method (excitation 380 nm and emission 480 nm ) was applied on analysis of the concentration of scoparone and 6,7 -diprenoxycoumarin. […]
valueType: Blood concentration, Cal. Conc. (ng/mL)
Number in ng/mL, nothing else.

// Blood concentration, Cal. Conc. lookup, compound = "CC(C)=CCOc1cc2ccc(=O)oc2cc1OCC=C(C)C" , result: 70

* * *

- targetEntity: Constitutive androstane receptor (CAR) (Homo sapiens, UniProt Q14994)
- Construct: The pGL4-gtPBREM plasmid was transfected into Hep3B cells; endogenous in cells
- Sequence (Q14994 1-352): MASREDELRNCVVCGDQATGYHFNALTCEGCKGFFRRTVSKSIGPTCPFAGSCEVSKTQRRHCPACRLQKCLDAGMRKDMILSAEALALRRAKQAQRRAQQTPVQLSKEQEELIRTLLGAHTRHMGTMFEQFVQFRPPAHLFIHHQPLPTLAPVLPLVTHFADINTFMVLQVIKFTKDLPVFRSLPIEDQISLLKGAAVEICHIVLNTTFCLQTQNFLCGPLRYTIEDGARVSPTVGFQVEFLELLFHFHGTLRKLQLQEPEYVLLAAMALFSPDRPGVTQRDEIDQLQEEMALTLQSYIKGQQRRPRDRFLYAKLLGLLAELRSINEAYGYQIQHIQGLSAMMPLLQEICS
- experimentSummary: In vitro CAR activation screening assay (UGT1A1 promoter gtPBREM-pGL4 luciferase reporter in Hep3B-gtPBREM cells)
- Assay type: cell-based
- conditionLabel: Table 2; 10 μM; (luminescence of compound − luminescence of scoparone)/luminescence of scoparone × 100%; read-out: CAR Activation Fold
Mark Met for reported activation at 10 µM of 20% or greater; mark Not met for anything smaller.

## Task Assess whether reported activation at 10 µM for "CC(C)=CCOc1cc2ccc(=O)oc2cc1OCC=C(C)C" sits at 20% or higher.
## Result Met

## Task Assess whether reported activation at 10 µM for "COc1cc2ccc(=O)oc2cc1O[C@@H]1O[C@H](CO)[C@@H](O)[C@H](O)[C@H]1O" sits at 20% or higher.
## Result Not met

## Task Assess whether reported activation at 10 µM for "COc1cc2ccc(=O)oc2cc1O" sits at 20% or higher.
## Result Not met

## Task Assess whether reported activation at 10 µM for COc1cc2oc(=O)ccc2cc1OC1OC(CO)C(O)C(O)C1O (stereo not drawn) sits at 20% or higher.
## Result Met

## Task Assess whether reported activation at 10 µM for "CCCCOc1cc2ccc(=O)oc2cc1OCCCC" sits at 20% or higher.
## Result Not met

## Task Assess whether reported activation at 10 µM for "COc1cc2oc(=O)ccc2cc1O" sits at 20% or higher.
## Result Not met

## Task Assess whether reported activation at 10 µM for CCCCCCOc1cc2ccc(=O)oc2cc1OCCCCCC [Compound 49, 6,7-Dihexoxycoumarin] sits at 20% or higher.
## Result Not met

## Task Assess whether reported activation at 10 µM for "CCOc1cc2ccc(=O)oc2cc1OCC" sits at 20% or higher.
## Result Not met

## Task Assess whether reported activation at 10 µM for "CC(C)CCOc1cc2ccc(=O)oc2cc1OCCC(C)C" sits at 20% or higher.
## Result Not met

* * *

- experimentSummary: Preliminary pharmacokinetic study, plasma concentration by RP-HPLC-fluorescence
- Assay type: in vivo, C57BL/6 mice
- conditionLabel: Table S2, Study 1 mouse 4, dose given 0.36 mg i.p., 360 min
valueType: Blood concentration, Cal. Conc. (ng/mL)
Number in ng/mL, nothing else.

// Blood concentration, Cal. Conc. lookup, compound = CC(C)=CCOc1cc2ccc(=O)oc2cc1OCC=C(C)C [Compound 50, 6,7-diprenoxycoumarin] , result: 40

* * *

- experimentSummary: Preliminary pharmacokinetic study, plasma concentration by RP-HPLC-fluorescence
- Type: in vivo, C57BL/6 mice
- conditionLabel: Table S2, Study 2 mouse 1, dose given 0.5 mg i.p., 11 min
valueType: Blood concentration, Cal. Conc. (ng/mL)
Number in ng/mL, nothing else.

// Blood concentration, Cal. Conc. lookup, compound = "CC(C)=CCOc1cc2ccc(=O)oc2cc1OCC=C(C)C" , result: 310

* * *

valueType: melting point

// melting point lookup, compound = "CCCCCOc1cc2ccc(=O)oc2cc1OCCCCC" , result: 57 to 59 °C

// melting point lookup, compound = "O=c1ccc2ccc(OC(F)(F)F)cc2o1" , result: 69 to 71 °C

// melting point lookup, compound = "O=c1ccc2cc(OC(F)(F)F)ccc2o1" , result: 83 to 85 °C

// melting point lookup, compound = "CCCCOc1cc2ccc(=O)oc2cc1OCCCC" , result: 77 to 79 °C

// melting point lookup, compound = "C=CCOc1cc2ccc(=O)oc2cc1OCC=C" , result: 84 to 85 °C

* * *

- targetEntity: Constitutive androstane receptor (CAR) (Homo sapiens, UniProt Q14994)
- Construct: The pGL4-gtPBREM plasmid was transfected into Hep3B cells; endogenous in cells
- experimentSummary: In vitro CAR activation screening assay (UGT1A1 promoter gtPBREM-pGL4 luciferase reporter in Hep3B-gtPBREM cells)
- Type: cell-based
- conditionLabel: Table 1; 10 μM; (luminescence of compound − luminescence of scoparone)/luminescence of scoparone × 100%; read-out: CAR Activation Fold
Mark 1 (yes) for reported activation at 10 µM of -30% or greater; mark 0 (no) for anything smaller.

## Task Assess whether reported activation at 10 µM for "CC(=O)Oc1cccc2ccc(=O)oc12" sits at -30% or higher.
## Result 0 (no)

## Task Assess whether reported activation at 10 µM for "CC(=O)Oc1ccc2oc(=O)ccc2c1" sits at -30% or higher.
## Result 1 (yes)

## Task Assess whether reported activation at 10 µM for "CCCCOc1cccc2oc(=O)ccc12" sits at -30% or higher.
## Result 1 (yes)

## Task Assess whether reported activation at 10 µM for "O=c1ccc2cc(OC(F)(F)F)ccc2o1" sits at -30% or higher.
## Result 0 (no)

## Task Assess whether reported activation at 10 µM for "COc1ccc2oc(=O)ccc2c1" sits at -30% or higher.
## Result 1 (yes)

## Task Assess whether reported activation at 10 µM for "C=CCOc1cccc2ccc(=O)oc12" sits at -30% or higher.
## Result 0 (no)

* * *

- experimentSummary: Preliminary pharmacokinetic study, plasma concentration by RP-HPLC-fluorescence
- Format: in vivo, C57BL/6 mice
- conditionLabel: Table S2, Study 2 mouse 2, dose given 0.5 mg i.p., 60 min
valueType: Blood concentration, Cal. Conc. (ng/mL)
Number in ng/mL, nothing else.

// Blood concentration, Cal. Conc. lookup, compound = "CC(C)=CCOc1cc2ccc(=O)oc2cc1OCC=C(C)C" , result: 120
